test_target: Indoleamine 2,3-dioxygenase 1 (Homo sapiens, UniProt P14902)
experimental_protocol: Inhibition of purified human recombinant IDO
result_type: Ki (nM)
Unit nM implied. Number only.

*Q* Tell me the measured Ki of CCc1c(C)cc2c(c1O)C(=O)C1=C(C2=O)C(C)(C)C(=O)C(C)(C(=O)OC)O1 (stereo unspecified) , please.
*A* 120

----------
test_target: Indoleamine 2,3-dioxygenase 1 (Homo sapiens, UniProt P14902)
experimental_protocol: Inhibition of purified human recombinant IDO
Active and inactive are the calls of the source. No cut-off for these calls is given here.
result_type: Activity

*Q* Which value of Activity has been reported for `CC1=C(C/C=C(\C)CCC[C@H](C)CCC[C@H](C)CCCC(C)C)C(=O)c2ccccc2C1=O` in the records?
*A* inactive

*Q* Next record, please: `CC1=CC(=O)C=CC1=O`
*A* inactive

*Q* Quick one: `O=C1C=CC(=O)C(c2ccccc2)=C1`
*A* inactive

*Q* Also check `O=c1ccoc2ccccc12`
*A* inactive

Alright, here's another compound for you.
*Q* So what does the record say about Activity for `O=C1C=CC(=O)C=C1` ?
*A* inactive

----------
test_target: Indoleamine 2,3-dioxygenase 1 (Homo sapiens, UniProt P14902)
experimental_protocol: Inhibition of purified human recombinant IDO
Measured log10 IC50 values are reported for all entries that follow.
On a log10 scale: recorded IC50, unit nM.

*Q* Consider the compound `CCCCN[C@H]1C2=C(OC(C)(C)[C@H]1O)C(=O)c1ccccc1C2=O` and give its measured log10 IC50.
*A* 2.11

*Q* Then what about the compound `O=C1C(Cl)=C(Cl)C(=O)c2ccccc21` ?
*A* 2.45

*Q* Query COC(=O)C1(C)C=CC2=C(O1)C(=O)c1ccccc1C2=O (stereo unspecified) next
*A* 2.39

More entries:
*Q* Field request: log10 IC50 | item: C=CCNC1C2=C(OC(C)(C)C1O)C(=O)c1ccccc1C2=O (trans isomer)
*A* 2.27

*Q* Subsequent entry: COC1C2=C(OC(C)(C)C1O)C(=O)c1ccccc1C2=O (cis isomer)
*A* 2.99

----------
test_target: Indoleamine 2,3-dioxygenase 1 (Homo sapiens)
experimental_protocol: Inhibition of purified human recombinant IDO expressed in TREx cells
Sequence (P14902 whole entry): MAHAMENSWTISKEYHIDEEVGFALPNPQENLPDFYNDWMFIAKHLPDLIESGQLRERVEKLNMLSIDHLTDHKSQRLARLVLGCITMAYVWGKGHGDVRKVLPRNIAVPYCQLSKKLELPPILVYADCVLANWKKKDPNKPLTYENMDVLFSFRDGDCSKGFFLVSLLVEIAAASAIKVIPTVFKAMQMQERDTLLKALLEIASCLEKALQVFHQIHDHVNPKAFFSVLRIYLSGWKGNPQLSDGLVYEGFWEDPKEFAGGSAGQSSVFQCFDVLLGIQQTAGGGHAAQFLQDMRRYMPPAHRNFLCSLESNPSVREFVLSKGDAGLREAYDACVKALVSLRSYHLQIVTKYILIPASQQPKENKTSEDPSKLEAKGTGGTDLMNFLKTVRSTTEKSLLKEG
result_type: IC50 (µM)
Numbers only; they are read as µM.

*Q* Reported IC50 for CCCCNC1C2=C(OC(C)(C)C1O)C(=O)c1ccccc1C2=O (trans isomer) : what is it?
*A* 87

// next item, IC50 requested
*Q* Which IC50 value belongs to `CC1(C)C=CC2=C(O1)C(=O)c1c(O)cccc1C2=O` ?
*A* 69

----------
test_target: Indoleamine 2,3-dioxygenase 1 (Homo sapiens, UniProt P14902)
experimental_protocol: Inhibition of purified human recombinant IDO
Listing of recorded IC50 by entry.
Write the answer as a number in nM, unit excluded.

*Q* Please look up its IC50: CC1=CC(=O)c2ccccc2C1=O [MENADIONE]
*A* 1000

*Q* Continue with COC1=CC(=O)c2ccccc2C1=O [2-Methoxy-1,4-naphthoquinone]
*A* 720

*Q* Query O=C1C=C(O)C(=O)c2ccccc21 [LAWSONE] next
*A* 675000

*Q* Repeat for the following compound: `COc1ccc2c(c1)C(=O)C1=C(OC(C)(C)C=C1)C2=O`
*A* 3020

*Q* Entry to check: `CC1(C)C=CC2=C(O1)C(=O)c1c(O)cccc1C2=O`
*A* 121

*Q* What do we get for CC1(C)C=CC2=C(O1)C(=O)c1ccccc1C2=O [DEHYDRO-ALPHA-LAPACHONE] ?
*A* 214

*Q* Now try `CC1(C)C=CC2=C(O1)C(=O)c1cc(O)ccc1C2=O` .
*A* 2050

*Q* Subsequent entry: `COc1cccc2c1C(=O)C1=C(OC(C)(C)C=C1)C2=O`
*A* 2130

*Q* Please do the same for COC1C2=C(OC(C)(C)C1O)C(=O)c1ccccc1C2=O (trans isomer) as well.
*A* 3960

*Q* Try CC1(C)OC2=C(C(=O)c3ccccc3C2=O)C(O)C1Br (stereo unspecified) next.
*A* 512

*Q* What do you have for CC1(C)OC2=C(C(=O)c3ccccc3C2=O)C(SCc2ccccc2)C1O (cis isomer) ?
*A* 3450

----------
test_target: Indoleamine 2,3-dioxygenase 1 (Homo sapiens, UniProt P14902)
experimental_protocol: Inhibition of purified human recombinant IDO
Exam item: assign fulfilled to entries whose IC50 is below 2 µM and not fulfilled to entries at or above 2 µM. Note that a value of exactly 2 µM receives not fulfilled.

*Q* Just wondering, is IC50 of CC1(C)OC2=C(C(=O)c3ccccc3C2=O)C(SCc2ccccc2)C1O (trans isomer) below 2 µM?
*A* not fulfilled

*Q* Param item: `O=C1C=CC(=O)c2c(O)cccc21`
*A* fulfilled

*Q* Same for `CC1(C)C=CC2=C(O1)C(=O)c1cccc(O)c1C2=O`
*A* fulfilled

*Q* Also check `CC1(C)C=CC2=C(O1)C(=O)c1ccc(O)cc1C2=O`
*A* not fulfilled

*Q* Same question, `O=C1C=Cc2ccccc2C1=O` this time
*A* not fulfilled

Note: attention shifts to another entry.
*Q* Say whether its IC50 is strictly beneath 2 µM. Entry: CC1(C)OC2=C(C(=O)c3ccccc3C2=O)C(O)C1O (stereo unspecified)
*A* fulfilled

----------
IC50 listing for selected compounds.
test_target: Indoleamine 2,3-dioxygenase 1 (Homo sapiens)
experimental_protocol: Inhibition of purified human recombinant IDO
Output spec: scalar in nM, unitless text.

Previously resolved entries follow.
*Q* For the compound `COc1cccc2c1C(=O)C1=C(C=CC(C)(C)O1)C2=O` , what IC50 is on record?
*A* 2920

*Q* What about CC1(C)OC2=C(C(=O)c3ccccc3C2=O)C(N2CCOCC2)C1O (trans isomer) ?
*A* 361

*Q* # iterate: CC1(C)CCC2=C(O1)C(=O)c1ccccc1C2=O [ALPHA-LAPACHONE]
*A* 4340

*Q* Please answer likewise for `Cc1c(SC[C@H](NC(=O)CC[C@H](N)C(=O)O)C(=O)NCC(=O)O)c(O)c2ccccc2c1O`
*A* 340

*Q* // query: `COc1ccc2c(c1)C(=O)C1=C(C=CC(C)(C)O1)C2=O`
*A* 933

---
*Q* Would you kindly share the measured IC50 for CC1(C)OC2=C(C(=O)c3ccccc3C2=O)C(OCc2ccccc2)C1O (stereo not given) ?
*A* 1090

*Q* What would you report for CCCCNC1C2=C(OC(C)(C)C1O)C(=O)c1ccccc1C2=O (trans isomer) ?
*A* 82

*Q* Next: CC1(C)OC2=C(C(=O)c3ccccc3C2=O)C(N2CCOCC2)C1O (cis isomer)
*A* 1100

*Q* Input `CC1(C)OC2=C(C(=O)c3ccccc3C2=O)[C@@H]2O[C@@H]21`
*A* 4950

*Q* Repeat with `CC1=C(SC[C@H](NC(=O)CC[C@H](N)C(=O)O)C(=O)NCC(=O)O)C(=O)c2ccccc2C1=O`
*A* 880
